Molecular target: Androgen Receptor (Homo sapiens)
Construct: endogenous in cells; host or cells: VCaP cells
Test: Androgen Receptor ELISA assay (PathScan AR ELISA) in VCaP cells: AR degradation, Dmax and DC50
Format: cell-based
Conditions: VCaP cells; Table 36; read-out: VCaP DC50
Procedure: 1. Androgen Receptor ELISA Assay. The protocols used with VCaP cells are described below. The androgen receptor ELISA assay was performed using PathScan AR ELISA (Cell Signaling Catalog #12850) according to the following assay steps: […]
Parameter DC50: see the listing below.

Molecule	Experimental Result
CC(C)(C)[C@H](NC(=O)COCCN1CCN(c2ccc(C(=O)N[C@H]3C(C)(C)[C@H](Oc4ccc(C#N)c(Cl)c4)C3(C)C)cn2)CC1)C(=O)N1C[C@H](O)C[C@H]1C(=O)NCc1ccc(C2CC2)cc1	> 501 nM

Input: Look at this molecule and give its reported DC50. Cc1ncsc1-c1ccc([C@H](CO)NC(=O)[C@@H]2C[C@@H](O)CN2C(=O)[C@@H](NC(=O)CN2CCN(CC3CCN(c4ccc(C(=O)N[C@H]5C(C)(C)[C@H](Oc6ccc(C#N)c(Cl)c6)C5(C)C)cn4)CC3)CC2)C(C)(C)C)cc1
Output: < 50 nM

Input: Look at this molecule and give its reported DC50. Cc1ncsc1-c1ccc([C@H](C)NC(=O)[C@@H]2C[C@@H](O)CN2C(=O)[C@H](C(C)C)n2cc(-c3ccnc(OC4CN(c5ccc(C(=O)N[C@H]6C(C)(C)[C@H](Oc7ccc(C#N)c(Cl)c7)C6(C)C)cn5)C4)c3)cn2)cc1
Output: > 501 nM

Input: Look at this molecule and give its reported DC50. Cc1ncsc1-c1ccc([C@H](C)NC(=O)[C@@H]2C[C@@H](O)CN2C(=O)[C@@H](NC(=O)CCCCCCCCc2ccc(C(=O)N[C@H]3C(C)(C)[C@H](Oc4ccc(C#N)c(Cl)c4)C3(C)C)cc2)C(C)(C)C)cc1
Output: 51 to 500 nM

----------
biological target: Androgen Receptor (Homo sapiens, UniProt P10275+P40337, T878A); construct: Compounds have been evaluated in this assay in LNCaP and/or VCaP cells utilizing similar protocols; endogenous in cells; host or cells: LNCaP cells; test: Androgen Receptor ELISA assay (PathScan AR ELISA) in LNCaP cells: AR degradation, Dmax and DC50; format: cell-based; settings: concentration that caused 50% Androgen Receptor degradation
Sequence (P10275 whole entry T878A): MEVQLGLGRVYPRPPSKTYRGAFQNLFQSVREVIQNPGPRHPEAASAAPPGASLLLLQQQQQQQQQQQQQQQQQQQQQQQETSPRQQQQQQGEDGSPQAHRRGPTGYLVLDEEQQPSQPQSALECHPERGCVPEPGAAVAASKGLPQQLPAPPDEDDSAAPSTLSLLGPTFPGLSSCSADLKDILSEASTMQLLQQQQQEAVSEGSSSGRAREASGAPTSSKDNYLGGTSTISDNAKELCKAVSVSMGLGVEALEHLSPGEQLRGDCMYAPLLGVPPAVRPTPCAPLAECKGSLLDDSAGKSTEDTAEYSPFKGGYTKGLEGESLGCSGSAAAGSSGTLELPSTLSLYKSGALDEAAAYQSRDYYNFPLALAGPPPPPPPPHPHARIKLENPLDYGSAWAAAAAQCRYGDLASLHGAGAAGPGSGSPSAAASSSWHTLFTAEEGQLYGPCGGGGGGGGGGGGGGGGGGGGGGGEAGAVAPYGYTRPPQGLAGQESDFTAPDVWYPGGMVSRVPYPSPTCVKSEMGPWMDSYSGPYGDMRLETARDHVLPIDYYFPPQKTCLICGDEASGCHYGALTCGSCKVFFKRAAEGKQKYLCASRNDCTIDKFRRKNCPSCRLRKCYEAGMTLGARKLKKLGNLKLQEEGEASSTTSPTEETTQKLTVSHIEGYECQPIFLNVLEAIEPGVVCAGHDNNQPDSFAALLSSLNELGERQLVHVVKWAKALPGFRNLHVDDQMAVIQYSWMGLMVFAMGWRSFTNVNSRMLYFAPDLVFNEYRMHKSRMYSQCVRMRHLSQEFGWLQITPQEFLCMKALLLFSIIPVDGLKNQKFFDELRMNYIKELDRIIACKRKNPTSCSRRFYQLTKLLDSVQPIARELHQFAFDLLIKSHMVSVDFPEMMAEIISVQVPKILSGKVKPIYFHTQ
Sequence (P40337 whole entry): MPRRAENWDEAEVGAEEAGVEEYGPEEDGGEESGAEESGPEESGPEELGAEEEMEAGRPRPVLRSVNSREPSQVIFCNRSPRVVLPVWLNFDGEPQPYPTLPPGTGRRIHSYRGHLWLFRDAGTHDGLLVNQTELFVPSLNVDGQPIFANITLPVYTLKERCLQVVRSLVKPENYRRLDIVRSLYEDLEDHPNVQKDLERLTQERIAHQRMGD
Sequence (Q15369 whole entry partner): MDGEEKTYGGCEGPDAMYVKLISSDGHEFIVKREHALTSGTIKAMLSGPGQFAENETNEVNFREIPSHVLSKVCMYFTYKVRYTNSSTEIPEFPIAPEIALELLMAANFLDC
Sequence (Q15370 whole entry partner): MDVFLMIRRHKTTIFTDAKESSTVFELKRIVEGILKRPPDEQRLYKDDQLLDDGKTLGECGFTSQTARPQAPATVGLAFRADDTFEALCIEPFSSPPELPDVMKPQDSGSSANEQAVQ
Parameter DC50: see the listing below.

Input: Look at this compound and give its reported DC50. Cc1ncsc1-c1ccc(CNC(=O)[C@@H]2C[C@@H](O)CN2C(=O)[C@@H](NC(=O)CC(=O)CCCOCCCCCOc2ccc(N3C(=S)N(c4ccc(C#N)c(C(F)(F)F)c4)C(=O)C3(C)C)cc2)C(C)(C)C)cc1
Output: 0.051 to 0.5 µM

----------
molecular target: Androgen Receptor (Homo sapiens); construct: endogenous in cells; host or cells: VCaP cells; test: Androgen Receptor ELISA assay (PathScan AR ELISA) in VCaP cells: AR degradation, Dmax and DC50; assay type: cell-based; details: VCaP, VCaP cells; Table 35; read-out: VCaP Dmax (%)
Attribute Measured: Dmax

Reference set (3 entries):
Compound	Dmax
CC(C)(C)[C@H](NC(=O)COCCCCCNc1ccc(C(=O)N[C@H]2C(C)(C)[C@H](Oc3ccc(C#N)c(Cl)c3)C2(C)C)cc1)C(=O)N1C[C@H](O)C[C@H]1C(=O)NCc1ccc(-c2scnc2C2CC2)cc1 [Example 555]	> 71%
CC(C)(C)[C@H](NC(=O)CNc1ccc(C#Cc2ccc(C(=O)N[C@H]3C(C)(C)[C@H](Oc4ccc(C#N)c(Cl)c4)C3(C)C)cc2)cn1)C(=O)N1C[C@H](O)C[C@H]1C(=O)NCc1ccc(C#N)cc1 [Example 498]	> 71%
CC(C)(C)[C@H](NC(=O)COCCCCCNc1ccc(C(=O)N[C@H]2C(C)(C)[C@H](Oc3ccc(C#N)c(Cl)c3)C2(C)C)cc1)C(=O)N1C[C@H](O)C[C@H]1C(=O)NCc1ccc(-n2cnnn2)cc1 [Example 505]	26 to 50%

We next turn to a different compound, shown below.
Input: Look at this compound and give its reported Dmax. CC(C)(C)[C@H](NC(=O)COCCCCCNc1ccc(C(=O)N[C@H]2C(C)(C)[C@H](Oc3ccc(C#N)c(Cl)c3)C2(C)C)cc1)C(=O)N1C[C@H](O)C[C@H]1C(=O)NCc1ccc(-c2cncnc2)cc1 [Example 534]
Output: 51 to 70%

The reported measurements were obtained from patent US11427548B2.
